Molecular target: SlyA (Escherichia coli)
Sequence (P0A8W2 1-144): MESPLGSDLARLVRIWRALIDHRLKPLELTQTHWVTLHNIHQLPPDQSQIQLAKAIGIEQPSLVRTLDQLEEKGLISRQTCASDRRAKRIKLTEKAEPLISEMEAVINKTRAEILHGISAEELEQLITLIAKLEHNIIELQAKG
Assay: biochemical

| SAMPLE SMILES | EC50 |
| --- | --- |
| CN(C)c1ccc(C(=O)Nc2ccc(-c3nc4ccc([N+](=O)[O-])cc4n3O)cc2)cc1 | > 5 µM |
| CC(=O)c1ccc(/C=C/C(=O)Nc2ccc(-c3nc4ccc([N+](=O)[O-])cc4n3O)cc2)cc1 | > 15.1 µM |
| N#Cc1ccc2nc(-c3ccc(NC(=O)/C=C/c4ccc(F)cc4)cc3)n(O)c2c1 | > 15.1 µM |
| CCc1cc(-c2nc3ccc([N+](=O)[O-])cc3n2O)ccc1NC(=O)/C=C/c1ccc(C)cc1 | > 15.1 µM |
| O=C(/C=C/c1ccc(F)cc1F)Nc1ccc(-c2nc3ccc([N+](=O)[O-])cc3n2O)cc1 | > 15.1 µM |
| O=C(/C=C/c1ccc(F)cc1)Nc1ccc(-c2nc3ncc([N+](=O)[O-])cc3n2O)c(F)c1 | > 15.1 µM |
| COc1cc(F)ccc1C(=O)Nc1ccc(-c2nc3ccc([N+](=O)[O-])cc3n2O)cc1 | > 15.1 µM |
| Cc1ccc(/C=C/C(=O)Nc2ccc(-c3nc4ccc([N+](=O)O)cc4n3O)cc2)cc1 | > 15.1 µM |
| O=[N+]([O-])c1ccc2nc(-c3ccc(-c4ccccc4)o3)n(O)c2c1 | > 5 µM |
